Target: T1, hRET.mFc (human)
T1 construct: also called dimeric human RET
Assay: SPR Biacore T200, mAb capture, 37 C
REPORTED_METRIC: koff (s⁻¹)
Respond with the bare value in s⁻¹.

# BINDER, EXPERIMENTAL_RESULT
measured = [
    ("H4H8066P (antibody, human IgG4, V domains shown, human IgG4 Fc (H4H prefix)) VH: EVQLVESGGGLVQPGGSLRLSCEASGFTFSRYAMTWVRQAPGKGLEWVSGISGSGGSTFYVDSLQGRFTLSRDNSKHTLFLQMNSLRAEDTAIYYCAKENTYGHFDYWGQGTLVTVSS VL: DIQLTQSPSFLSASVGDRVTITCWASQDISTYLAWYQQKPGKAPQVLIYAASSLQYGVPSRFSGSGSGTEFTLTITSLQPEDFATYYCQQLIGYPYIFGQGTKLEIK", 0.000335),
    ("H4H8076P (antibody, human IgG4, V domains shown, human IgG4 Fc (H4H prefix)) VH: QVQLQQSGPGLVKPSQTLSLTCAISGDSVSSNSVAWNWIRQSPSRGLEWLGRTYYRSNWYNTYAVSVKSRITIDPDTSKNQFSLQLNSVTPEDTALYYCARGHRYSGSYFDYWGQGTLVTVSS VL: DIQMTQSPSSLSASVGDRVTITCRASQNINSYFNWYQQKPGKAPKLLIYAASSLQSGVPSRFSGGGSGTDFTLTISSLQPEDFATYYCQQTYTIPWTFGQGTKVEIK", 0.000675),
]

Next item in the queue.
Per the records, this binder ( H4H8062P (antibody, human IgG4, V domains shown, human IgG4 Fc (H4H prefix)) VH: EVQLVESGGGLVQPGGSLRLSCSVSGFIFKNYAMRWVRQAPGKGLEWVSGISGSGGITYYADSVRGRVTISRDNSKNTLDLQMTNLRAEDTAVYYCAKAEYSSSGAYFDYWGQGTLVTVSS VL: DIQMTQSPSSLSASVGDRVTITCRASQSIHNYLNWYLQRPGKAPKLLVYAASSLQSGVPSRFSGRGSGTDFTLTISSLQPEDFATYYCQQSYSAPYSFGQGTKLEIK ) has koff equal to 0.00088
